- Assay overview: inhibitors of HIV-1 Env-driven cell-cell fusion, primary screen, HeLa-JRFL effector, CEM21 target cells, luciferase (AID 651610);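 note: 0% = plate neutral controls and 100% = maraviroc near 300 nM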
- Experimental context: hits give high values; at 16.7 µM unless noted
The campaign covered roughly 360,000 compounds. About 3,900 (1.1%) were called active. Many of the other results were omitted from the sample, so actives are more common in it than they were.
Below, each entry is listed alongside its reported inhibition.

inhibition measured on `CN(C)CC(=O)N[C@H]1CC[C@H](CCNC(=O)C2CCCCC2)O[C@H]1CO` = -245% (inactive)

Lab book: inhibition of `CCOC1=C2[C@@H](CN(S(=O)(=O)c3ccc(C)cc3)[C@H]2c2ccccc2F)[C@H]2C(=O)N(Cc3ccccc3)C(=O)[C@H]2C1` noted as 12.3% [at 12.3 µM] (inactive)

Record `OCCN1CCN(C(=S)c2ccc(-c3ccccc3)cc2)CC1` . Reported inhibition: 71.3% [at 12.3 µM] (active)

Reported inhibition ( `C[C@@H]1CN([C@H](C)CO)C(=O)Cc2cc(NC(=O)Nc3ccc(F)cc3)ccc2O[C@@H]1CN(C)C(=O)Nc1ccc2c(c1)OCO2` ) = 8.43% (inactive)

Noted for CC1(C(=O)NCc2cccc3ccccc23)CCN1Cc1ccc(-c2ccccc2)o1 (stereo not given) : its inhibition reads 102% [at 12.3 µM] (active)

// sample `CN(C)C=NC(=O)c1cccn1-c1ncc(C(F)(F)F)cc1Cl` , its inhibition was 8.04% [at 12.3 µM] (inactive)

The compound identified as `COc1ccc(C(=O)Nc2nc(-c3ccc(S(=O)(=O)N4CCOCC4)cc3)cs2)cc1` registered its inhibition at 93.5% [at 12.3 µM] (active)

# inhibition (compound: `CCCNC(=O)N1C[C@@H](O)COC[C@@H]2O[C@H](CC(=O)N3CCN(C)CC3)CC[C@H]21` ) is -4.93% (inactive)

Entry `CNC(=O)c1ccsc1NC(=O)c1ccc(S(=O)(=O)N2CCOCC2)cc1` ; inhibition = -27.2% [at 12.3 µM] (inactive)

The value of inhibition measured for the compound `C=CC[n+]1c(-c2ccc(C)cc2)csc1NNC(=O)Nc1ccccc1` turned out to be 77.7% [at 12.3 µM] (active)

---

- Assay overview: inhibitors of HIV-1 Env-driven cell-cell fusion, primary screen, HeLa-JRFL effector, CEM21 target cells, luciferase (AID 651610);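 note: 0% = plate neutral controls and 100% = maraviroc near 300 nM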
- Experimental context: at 16.7 µM unless noted
Among all 360,000 compounds or so, about 3,900 (1.1%) were called active.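 How the source made its calls: active means mean replicate inhibition score of at least 50 and every replicate individually at or above 50; inconclusive means only one of the two criteria met; inactive means mean below 50 and not all replicates reaching 50.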 The sample holds actives, similar compounds and a random draw of the others, so the mix is not that of the screen.
// one of active, inactive, no free text

Take a look at these entries with their results.
COc1ccc(CCN2C(=O)C(C)=C(C)C2=O)cc1OC ... inactive
C[C@@H]1CN([C@H](C)CO)C(=O)c2cc(NC(=O)Nc3ccccc3)ccc2O[C@@H](C)CCCCO[C@H]1CN(C)Cc1ccc(C(F)(F)F)cc1 ... inactive
CCC(=O)N(C)C[C@@H]1Oc2ncc(C3=CCCC3)cc2C(=O)N([C@H](C)CO)C[C@@H]1C ... inactive

Per the assay record, what outcome was assigned to `C[C@H](CO)N1C[C@H](C)[C@H](CN(C)C(=O)NC2CCCCC2)OCCCC[C@H](C)Oc2ccc(NC(=O)Nc3ccc4c(c3)OCO4)cc2C1=O` ?
inactive

Call for entry CCOC(=O)c1c(NC(=O)C(C)Sc2c[nH]c3ccccc23)sc2c1CCC2 (stereo unspecified) :
active

# fetch the recorded call for `C[C@H]1CCCCO[C@@H](CN(C)Cc2ccc(C(F)(F)F)cc2)[C@@H](C)CN([C@@H](C)CO)C(=O)c2cc(NC(=O)Nc3ccccc3)ccc2O1` here
active
